# Read-out: Forkhead box O1 (FOXO1), FOXO1 (gene 2308)
# Assay summary: LTEA_HepaRG_FOXO1: Life Technologies and Expression Analysis (LTEA) Assay for Forkhead box O1 (FOXO1) using HepaRG (AID 2283456)
# Condition details: mRNA level, 48 h; actives raise or lower the signal
Active and inactive are the calls of the source. The calls were made as follows: active = hit-call score of the fitted dose curve at least 0.9, where 1 is the maximum; inactive = score below 0.9.
Just give me one of these, please: True (active), False (inactive)

How was CN1CCN(c2ccccc2/C=C2\SCCN(c3ccc(Cl)c(Cl)c3)C2=O)CC1 classified in this test? True

How was CCCCOCCO classified in this test? False

How was CCCCCCCCCCCCN1CCCC1=O classified in this test? False
